Molecular target: human RIP1 kinase domain (2-375) (Homo sapiens (Human), UniProt Q13546)
Sequence (Q13546 2-375): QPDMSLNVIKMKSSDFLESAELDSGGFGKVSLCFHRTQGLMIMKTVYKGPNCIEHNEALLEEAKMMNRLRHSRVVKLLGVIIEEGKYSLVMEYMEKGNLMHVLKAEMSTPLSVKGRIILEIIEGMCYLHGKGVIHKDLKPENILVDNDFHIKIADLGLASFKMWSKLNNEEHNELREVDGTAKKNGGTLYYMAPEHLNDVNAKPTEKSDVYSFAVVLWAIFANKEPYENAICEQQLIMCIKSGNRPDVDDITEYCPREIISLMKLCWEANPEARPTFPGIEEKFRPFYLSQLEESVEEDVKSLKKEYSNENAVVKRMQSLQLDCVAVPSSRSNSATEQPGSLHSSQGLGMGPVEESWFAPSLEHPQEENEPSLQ
Assay: biochemical
Assay type: biochemical
Details: human RIP1 kinase domain (2-375), Transcreener ADP assay, 50 uM ATP, 2 hours incubation; read-out: RIP1 Ki
Attribute: pKi
In textbook form, pKi equals minus log to base ten of the concentration in mol/L.

Cc1cc2n(n1)CCC(NC(=O)c1ncn(CC3CCCC3)n1)C(=O)N2C (stereo not shown)    6.87

I am curious: what pKi value has been reported for CN1C(=O)[C@@H](NC(=O)c2nnc(Cc3ccccc3)[nH]2)CCn2nc(C3CC3(F)F)cc21 (stereo partly shown) ?
6.66

Try this compound next: Cc1nn2c(c1C)N(C)C(=O)[C@@H](NC(=O)c1ncn(Cc3ccccc3)n1)CC2
7.40

Try this compound next: CN1C(=O)[C@H](NC(=O)c2ncn(Cc3cccc(F)c3F)n2)CCn2nc([C@H]3CC3(F)F)cc21
7.75

Cited source for all entries: patent US10988459B2
